target: RORγ (Homo sapiens, UniProt P51449); test: RORγ Gal4 Reporter Gene Assay; format: cell-based
Sequence (P51449 whole entry, looked up, the tested form may be a part): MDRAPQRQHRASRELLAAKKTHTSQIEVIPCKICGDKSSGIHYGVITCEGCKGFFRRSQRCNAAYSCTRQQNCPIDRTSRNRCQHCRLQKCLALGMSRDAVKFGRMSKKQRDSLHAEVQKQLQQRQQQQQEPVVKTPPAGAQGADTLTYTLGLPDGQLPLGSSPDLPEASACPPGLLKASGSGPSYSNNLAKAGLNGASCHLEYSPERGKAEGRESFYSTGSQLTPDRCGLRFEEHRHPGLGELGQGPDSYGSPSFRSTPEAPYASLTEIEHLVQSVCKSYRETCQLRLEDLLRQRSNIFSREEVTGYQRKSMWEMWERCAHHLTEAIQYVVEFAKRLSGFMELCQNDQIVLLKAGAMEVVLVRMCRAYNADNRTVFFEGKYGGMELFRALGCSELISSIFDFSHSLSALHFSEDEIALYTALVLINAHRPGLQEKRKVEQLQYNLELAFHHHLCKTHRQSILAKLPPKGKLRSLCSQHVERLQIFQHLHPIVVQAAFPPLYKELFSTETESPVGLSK
Listing of recorded pIC50 (REN) by entry.
property name: pIC50 (REN)

compound=CC(C)(C)NS(=O)(=O)c1ccc(-c2sc(C(=O)N[C@H]3C[C@@H](S(C)(=O)=O)C3)nc2CC2CCCCC2)c(Cl)c1Cl property_name="pIC50 (REN)" observed=7.2/8.2/8.4
compound="COC(c1nc(C(=O)N[C@H]2C[C@H](C(=O)O)C2)sc1-c1cc(C(C)(C)C)cc(C2(C)CC2)c1)C1CCCCC1 (stereo partly shown)" property_name="pIC50 (REN)" observed=6.1/7.0/7.0
compound=CC(C)(C)c1cc(-c2nc(S(N)(=O)=O)sc2CC2CCCCC2)cc(C(C)(C)C)c1 property_name="pIC50 (REN)" observed=5.9/6.1/6.0
compound=CC(C)(C)NS(=O)(=O)c1ccc(-c2sc(C(=O)N3CC4(COC4)C3)nc2CC2CCCCC2)c(Cl)c1Cl property_name="pIC50 (REN)" observed=6.6/7.9/8.0
compound=CC(C)(C)NS(=O)(=O)c1ccc(-c2sc(C(=O)NCC3(C(N)=O)CCOCC3)nc2CC2CCCCC2)c2ccccc12 property_name="pIC50 (REN)" observed=6.5/8.5/8.7

* * *

molecular target: UniProt P51449; test: RORγ Gal4 Reporter Gene Assay; format: cell-based
Listing of recorded pIC50 (REN) by entry.
property name: pIC50 (REN)

smiles_notation=CC(C)(C)NS(=O)(=O)c1ccc(-c2sc(C(=O)NCCC(C)(C)C(=O)O)nc2CC2CCCCC2)c(Cl)c1Cl observed=6.4/8.2/8.2
smiles_notation=CC(C)(C)NS(=O)(=O)c1ccc(-c2sc(C(=O)N[C@H]3C[C@H](C(=O)O)C3)nc2CC2CCCCC2)c2c(F)cccc12 observed=6.3/7.0/7.1
smiles_notation=CC(C)(C)NS(=O)(=O)c1ccc(-c2sc(C(=O)NCC3(C(=O)O)CCOCC3)nc2CC2CCCCC2)c(Cl)c1Cl observed=6.3/7.4/7.4
smiles_notation=CC(C)(C)NS(=O)(=O)c1ccc(-c2sc(C(=O)NCC3(O)CCS(=O)(=O)CC3)nc2CC2CCCCC2)c2ccccc12 observed=6.6/8.5/8.7
smiles_notation=CC(C)(C)NS(=O)(=O)c1ccc(-c2sc(C(=O)NCCC(C)(C)C(N)=O)nc2CC2CCCCC2)cc1C(F)(F)F observed=5.9/6.9/7.0
smiles_notation=CC(C)(C)NS(=O)(=O)c1ccc(-c2sc(C(=O)N[C@H]3C[C@H](C(=O)O)C3)nc2CC2CCCCC2)cc1C(C)(C)C observed=6.2/7.5/7.6
smiles_notation=CC(C)(C)NS(=O)(=O)c1ccc(-c2oc(C(=O)N[C@H]3C[C@H](C(=O)O)C3)nc2CC2CCCCC2)cc1C(C)(C)C observed=5.5/6.4/6.3
smiles_notation=O=C(c1nc(CC2CCCCC2)c(-c2ccc(S(=O)(=O)NC3CS(=O)(=O)C3)c3ccccc23)s1)N1CC2(CCS(=O)(=O)CC2)C1 observed=6.6/6.4/6.4
smiles_notation=CC(C)(C)NS(=O)(=O)c1ccc(-c2sc(C(=O)N3CC4(CC[S+]([O-])CC4)C3)nc2CC2CCCCC2)c2ccccc12 observed=6.4/7.8/7.9
smiles_notation=CCS(=O)(=O)c1ccc(CC(=O)Nc2nc(CC3CCCCC3)c(-c3ccc(S(=O)(=O)NC(C)(C)C)c(C(F)(F)F)c3)s2)cc1 observed=7.1/7.4/7.8
smiles_notation=CC(C)(O)CNC(=O)c1nc(CC2CCC2)c(-c2ccc(S(=O)(=O)NC(C)(C)C)c(Cl)c2Cl)s1 observed=7.0/8.1/8.2
